- System: malignant MM cells (MM1s and H929)
- measurementNotes: MTT survival assay of malignant MM cells treated with Bortezomib
- Format: cell-based
- conditionContext: Homo sapiens, 48 hours, read-out: IC50, killing of myeloma cells
valueType: pIC50
Answers are plain numbers, as −log10 of the molar value.

Please fill in: pIC50 reported for CC(C)C[C@H](NC(=O)[C@H](Cc1ccccc1)NC(=O)c1cnccn1)B(O)O [BTZ, Bortezomib] = 8.30

Where these numbers come from: patent US12220465B2
